Tested on: DU-145 prostate
Assay: NCI tumour cell line growth inhibition, 48 h
Each record here notes measured TGI.

>  <Compound>
NCC(=O)NC(CO)C(=O)O (stereo not drawn)

>  <TGI>
> 100 µM

$$$$
>  <Compound>
O=C(Nc1ccc(Cl)cc1F)c1cc(Cl)ccc1O

>  <TGI>
> 42.8 µM

$$$$
>  <Compound>
Cc1cc2c(=O)c3ccccc3oc2c(C#N)c1C

>  <TGI>
> 100 µM

$$$$

====

System: SN12C renal
Experiment: NCI tumour cell line growth inhibition, 48 h
Quantity Kind: TGI

>  <Molecule>
CC(=O)[C@]1(C)[C@H](C)O[C@](C)(CO)[C@H]1O[Si](C)(C)c1ccccc1

>  <Result>
> 100 µM

$$$$
>  <Molecule>
CNc1ccc(C(=O)CC(O)CCC(C)C2OC(=O)CC(O)CC(=O)CC(O)CC(O)CC(O)CC(O)CC3(O)CC(O)C(C(=O)NCCc4ccccn4)C(CC(OC4OC(C)C(O)C(N)C4O)/C=C/C=C/C=C/C=C\C=C/C=C/C=C/C2C)O3)cc1 (stereo unspecified)

>  <Result>
2.09 µM

$$$$
>  <Molecule>
NS(=O)(=O)c1ccc(N=Nc2nc3[nH]cnc(=S)c3[nH]2)cc1

>  <Result>
> 40.1 µM

$$$$
>  <Molecule>
CC(C)NCCCCCNc1cc(O)cc2cccnc12

>  <Result>
> 100 µM

$$$$
>  <Molecule>
CC(C(=O)N1C(=O)N(C(=O)[C@H](C)C(O)c2ccccc2)[C@H](c2ccccc2)[C@H]1c1ccccc1)[C@@H](O)c1ccccc1 (stereo partly specified)

>  <Result>
> 100 µM

$$$$
>  <Molecule>
Cc1ccc(Nc2cc(=O)[nH]c(=O)[nH]2)cc1CS

>  <Result>
> 100 µM

$$$$
>  <Molecule>
Cc1ccc(C(O)/C(=N/N)c2nc3ccc([N+](=O)[O-])cc3[nH]c2=O)cc1 (stereo unspecified)

>  <Result>
> 100 µM

$$$$
>  <Molecule>
CNC(=O)c1c(NC(=O)c2ccc(C(C)C)cc2)sc2c1CCC(=O)C2

>  <Result>
2.38 µM

$$$$
>  <Molecule>
COc1cc(S(=O)(=O)Nc2ccc(-c3csc(/N=C\C=C\c4ccccc4)n3)cc2)ccc1Cl

>  <Result>
> 100 µM

$$$$
>  <Molecule>
COc1cc(/C=C2/C(=O)N=C(NC(C)=O)N2C)ccc1OC(C)=O

>  <Result>
> 100 µM

$$$$
>  <Molecule>
Cc1cccc2c1ccc1c3occ(C)c3c(=O)oc21

>  <Result>
> 100 µM

$$$$
>  <Molecule>
CCN(CC)C(=O)N[C@@H](Cc1ccccc1)C(=O)NC

>  <Result>
> 100 µM

$$$$
>  <Molecule>
Nc1ccc(-c2nc3ccccc3s2)cc1F

>  <Result>
> 100 µM

$$$$
>  <Molecule>
COc1ccc(C(=O)C(CC2C(=O)CC(C)(C)C(C(=O)C(=O)Nc3c(C)cccc3C)C2=O)c2ccc(OC)cc2)cc1 (stereo unspecified)

>  <Result>
> 100 µM

$$$$
>  <Molecule>
COc1ccc2[nH]cc(CN3CCC(CO)(c4ccccc4)CC3)c2c1

>  <Result>
> 100 µM

$$$$
>  <Molecule>
O=C(Nc1cccc(-n2cc(-c3ccncc3)c(-c3ccc(O)c(Cl)c3)n2)c1)c1ccc(N2CCOCC2)c(C(F)(F)F)c1

>  <Result>
> 50 µM

$$$$

Where these numbers come from: PubChem BioAssay (NCI)
